Please provide measured abundance fitness for the entries that follow.
B1: Advillin, residues 785 to 819; numbered along this chain, O75366 (parent)
chain: LSEQDFVSVFGITRGQFAALPGWKQLQMKKEKGLF

Variants of: B1
Experiment: abundance fitness (aPCA) (normalised: wild type 0, dead -1); higher = more abundant; growth selection in yeast, the domain comes from the species named
Conditions: Homo sapiens
Answers are plain numbers.

Here are 5 variants together with their reported answers.
{"VARIANT SPEC": "P21Q", "abundance fitness": -0.271}
{"VARIANT SPEC": "V9A", "abundance fitness": -0.222}
{"VARIANT SPEC": "E3R", "abundance fitness": -0.476}
{"VARIANT SPEC": "F6W", "abundance fitness": -0.186}
{"VARIANT SPEC": "W23Y", "abundance fitness": -0.211}

List the reported abundance fitness of each variant below.
1. A18G
2. F6R
3. T13Y
4. M28R

Result:
1: -0.103; 2: -0.468; 3: -0.017; 4: -1.14
